Tested on: SNB-19 CNS
protocol_details: NCI tumour cell line growth inhibition, 48 h
recorded_metric: TGI

Here is how some compounds turned out for TGI.
COc1ccc2c(c1)C(N)=C(c1ccccc1OC)C2=O :: > 100 µM
COc1cc(C2NCCC(c3ccccc3)(c3ccccc3)N2)cc(OC)c1OC (configuration not stated) :: > 100 µM
COC(=O)C1C(O)C(C)C(=O)C(C)/C=C\C=C(C)C(=O)Nc2c(C)c(OC(C)=O)c3c(c2O)C(=O)C(C)=C2OCOC(=C23)C(C)=CC(C)(O)C(O)C(C)C1O (configuration not stated) :: > 100 µM
O=C1NC2c3c(I)sc(I)c3/C(=N\O)C2O1 (configuration not stated) :: 58.2 µM

Would you mind telling me what TGI value was observed for CCC(O)CC1OC2(CCC1C)CC1OC(=O)/C=C\C(C)(O)C(O)C(C)C(O)C(OC3CC(OC)C(O)C(C)O3)C(O)C(C)(O)CCC/C=C/C3CC(C)COC3(O)CC(O2)C1C (configuration not stated) ? > 100 µM

----------
Test system: OVCAR-8 ovarian
protocol_details: NCI tumour cell line growth inhibition, 48 h
recorded_metric: TGI

Here is how some compounds turned out for TGI.
COc1cccc(/C=C/c2ccc(S(N)(=O)=O)cc2)c1 :: > 100 µM
c1ccc2c(c1)c1ccccc1c1n[se]nc21 :: > 100 µM
COC(=O)Cc1cccc2c1CCC2=O :: > 100 µM

Would you mind telling me what TGI value was observed for O=C(Nc1ccccn1)/C(=C\C(=O)c1ccc(Cl)cc1)Nc1ccccc1 ? > 10 µM

----------
Test system: HOP-92 NSCLC
protocol_details: NCI tumour cell line growth inhibition, 48 h
*1 amine or outer side, *2 acyl side, *3 side chain or, on linkers, in order; H or OH if unused. Where a SMILES comes first, the peptide text is derived from it. [ ]: non-standard residue; d: D form. ξ: configuration not given here. Ile(3ξ) = CCC(C)[C@H](N)C(=O)O; X33 = C=CCC(O[*:1])C(=O)[*:2]; NMeV = CN[C@H](C(=O)O)C(C)C; NMeA = CN[C@@H](C)C(=O)O; βAla = NCCC(=O)O
Items are presented alongside their recorded TGI.

Here is how some molecules turned out for TGI.
Cc1cccc2c1CC(C1OC(=O)c3ccccc31)C2=O (stereo unspecified) :: > 100 µM
C[n+]1cn(C2=C([O-])c3ccccc3C(=O)/C2=N\S(=O)(=O)c2ccccc2)c2ccccc21 :: > 100 µM
C=CCC1OC(=O)CCNC(=O)[C@H](C)N(C)C(=O)[C@H](C(C)C)N(C)C(=O)[C@H](C(C)CC)NC(=O)[C@@H]2CCCN2C1=O (stereo partly specified) (cyclo([Ile(3ξ)][NMeV][NMeA][βAla][X33]P)) :: > 30.9 µM
COC(=O)[C@]12CC[C@H]3CN(C(=O)OCc4ccccc4)[C@H]([C@H]31)[C@H](c1ccco1)N2 :: > 100 µM

Lab request: please report TGI under test system HOP-92 NSCLC for COC(=O)[C@@H]1C[C@@]23CCCN4CC[C@@]5(c6cccc(OC)c6N(C=O)[C@]15CC2)[C@@H]43 > 100 µM

Lab request: please report TGI under test system HOP-92 NSCLC for COC(=O)C1Cc2c([nH]c3ccccc23)C(C2CCCCC2)N1 (stereo unspecified) > 100 µM

Lab request: please report TGI under test system HOP-92 NSCLC for COc1ccc(/C=C/c2nsc(/C=C/c3ccc(OC)cc3)n2)cc1 > 100 µM

Lab request: please report TGI under test system HOP-92 NSCLC for Sc1ccccc1S > 100 µM

Lab request: please report TGI under test system HOP-92 NSCLC for CCCCCOc1ccc(C=Nc2ccc(-c3ccc(N=Cc4ccc(OCCCCC)cc4)c(OC)c3)cc2OC)cc1 > 100 µM

Lab request: please report TGI under test system HOP-92 NSCLC for O=C1CSC(c2ccccc2O)N1c1ccc(-c2ccc(-n3c(-c4ccccc4)nc4ccccc4c3=O)cc2)cc1 (stereo unspecified) > 100 µM

Lab request: please report TGI under test system HOP-92 NSCLC for COC(=O)C1=C(OC(=O)c2ccccc2)C(C(=O)OC)[C@]2(O)[C@@H](C(=O)OC)C1CC(c1ccccc1OC)[C@@H]2C(=O)OC (stereo partly specified) 31 µM

Lab request: please report TGI under test system HOP-92 NSCLC for COc1cccc(/C=C/c2ccc(S(N)(=O)=O)cc2)c1 35.8 µM

Lab request: please report TGI under test system HOP-92 NSCLC for CCOC(=O)Cc1csc(NC(=O)COC(=O)c2ccc(N)cc2)n1 44.8 µM

Lab request: please report TGI under test system HOP-92 NSCLC for O=[N+]([O-])c1ccc(C(Br)c2ccc([N+](=O)[O-])cc2)cc1 4.99 µM

Lab request: please report TGI under test system HOP-92 NSCLC for NC(=S)N/N=C/c1c[nH]c2ccccc12 > 100 µM

Lab request: please report TGI under test system HOP-92 NSCLC for C[n+]1c2ccccc2n2c3ccccc3c(NCCCN3CCOCC3)c(C#N)c21 > 100 µM

----------
Test system: HCT-15 colon
protocol_details: NCI tumour cell line growth inhibition, 48 h
Items are presented alongside their recorded TGI.

Here is how some molecules turned out for TGI.
O=C1c2ccccc2C(=Nc2ccc3ccccc3c2)C1(C1=C(c2ccccc2)C(=Nc2ccc3ccccc3c2)c2ccccc21)c1ccccc1 (centres undefined) :: > 23.8 µM
O=C(NCCOC(=O)OCCNC(=O)NC1CCCCC1)NC1CCCCC1 :: > 100 µM
CC1CN=C(N(Cc2ccc(F)cc2)C(=O)Nc2ccc(Cl)cc2)S1 (centres undefined) :: > 100 µM

Now for the molecule whose TGI we want.
Would you mind telling me what TGI value was observed for c1cc(-c2ccc(-c3ccc(-c4ccc(-c5cccc6nsnc56)[nH]4)c4nsnc34)[nH]2)c2nsnc2c1 ? > 100 µM

----------
Test system: EKVX NSCLC
protocol_details: NCI tumour cell line growth inhibition, 48 h
recorded_metric: TGI

Here is how some molecules turned out for TGI.
COc1cc(C)c2c(c1C=O)Oc1c(c(C)c(O)c3c1C(O)OC3=O)OC2=O (stereo not given) :: > 100 µM
O=C(ON=c1c2ccccc2ccc2ccccc12)c1ccccc1 :: 96.9 µM
COc1ccc(C(=C[N+](=O)[O-])c2ccc(OC)cc2)cc1 :: > 100 µM
COc1cc(/C=C2/SC(c3ccccc3)N(c3cccc(NC(C)=O)c3)C2=O)cc(OC)c1OC (stereo not given) :: > 100 µM
CCN1C(=O)C(=C/C=C/c2ccc(OC)cc2)C(=O)N(CC)C1=S :: 78.9 µM

Would you mind telling me what TGI value was observed for COc1nc(NC2OC(COC(C)=O)C(OC(C)=O)C(OC(C)=O)C2OC(C)=O)c2c(OC(C)=O)c(C)c(=O)oc2n1 (stereo not given) ? > 100 µM

Would you mind telling me what TGI value was observed for CC1=C(C(=O)Nc2ccc([N+](=O)[O-])cc2)C(c2cccc([N+](=O)[O-])c2)C(C(=O)Nc2ccc([N+](=O)[O-])cc2)=C(C)N1 ? > 100 µM

----------
Test system: KM12 colon
protocol_details: NCI tumour cell line growth inhibition, 48 h
recorded_metric: TGI

Here is how some molecules turned out for TGI.
COc1cc(Nc2nc3ccccc3n3cccc23)cc(OC)c1OC :: > 100 µM
CN(C)c1[se]nc2c1c(=O)n(C)c(=O)n2C :: > 100 µM
CCOC(=O)c1c(NC(=O)COc2cccc3cccnc23)sc(C(=O)N(C)C)c1C :: 35.3 µM
CCC1CC(C)C(O)/C=C/C=C/CC(C)OC(=O)CC(O)C(OC)C1OC1OC(C)CC(O)(C(C)=O)C1O (stereo unspecified) :: > 100 µM
Cc1cc(C#N)c[n+](C)c1 :: > 100 µM

Now for the molecule whose TGI we want.
Would you mind telling me what TGI value was observed for NCCc1c[nH]c2ccc(OC(=O)C(=O)O)cc12 ? > 100 µM

----------
Test system: IGROV1 ovarian
protocol_details: NCI tumour cell line growth inhibition, 48 h
recorded_metric: TGI

Here is how some compounds turned out for TGI.
COc1ccc(-c2csc(-n3c(-c4ccccc4)nc4c(Br)cc(Br)cc4c3=O)n2)cc1 :: > 100 µM
O=C1C=CC(=O)c2c(O)ccc(O)c21 :: 15.5 µM
COC(=O)[C@@H]1C[C@@]23CCCN4CC[C@@]5(c6cccc(OC)c6N(C=O)[C@]15CC2)[C@@H]43 :: > 100 µM
Cc1nc2c(n1CC(C)C)C(=O)c1ccccc1C2=O :: > 100 µM
C=CCc1cc(OC)c2c(c1)C(OC(C)=O)CC(c1ccc(OC)c(OC)c1)O2 (stereo not drawn) :: > 100 µM
O=c1c2c([nH]c3ccccc13)CCCC2 :: > 100 µM
O=C1[C@@H]2C(c3cccc([N+](=O)[O-])c3)=NO[C@@H]2C(=O)N1c1ccc(Cc2ccc(N3C(=O)[C@H]4C(c5cccc([N+](=O)[O-])c5)=NO[C@H]4C3=O)cc2)cc1 :: > 100 µM

Would you mind telling me what TGI value was observed for Brc1ccc(SCN(CSc2ccc(Br)cc2)Cc2ccccc2)cc1 ? 7.25 µM

Origin of measurements: PubChem BioAssay (NCI)
